All values here come from PubChem BioAssay (Tox21).

- assay_text: qHTS assay to identify small molecule agonists of the retinoic acid receptor (RAR) signaling pathway (AID 1159553)
- protocol_conditions: C3RL4 RARE luciferase reporter, agonist, 6 h; series mostly up to 73.3 µM
Records with an inconclusive call do not appear. Activity calls are given as the source filed them. Calls follow the shape of the dose curve; as a rule, active = well fitted activation curve with a large enough effect in the repeat runs; inconclusive = weak or mixed curves, or effect the other way; inactive = no such curve, though single readings can be large or run the other way.
Give your call using only these classes: yes (1) = active, no (0) = inactive

A selection of reference data follows.
*Q* Record lookup: outcome of this test for COC(=O)COc1ccc(Cl)cc1Cl ?
*A* no (0)

*Q* Kindly provide the recorded test outcome for the following compound: O=[N+]([O-])c1cccc2c([N+](=O)[O-])cccc12
*A* no (0)

*Q* Please share the test call associated with O=[N+]([O-])c1cccc(O)c1 .
*A* no (0)

*Q* What classification did CCOP(=S)(OCC)SCSc1ccc(Cl)cc1 end up with in this test?
*A* no (0)

*Q* What classification did CCCCCCBr end up with in this test?
*A* no (0)

Kindly review the next compound as well.
*Q* Dear all, I need the recorded test outcome for CNC(=O)Oc1c(C(C)(C)C)cc(C)cc1C(C)(C)C , thank you.
*A* no (0)
